Biological target: T1, biotinylated huIL-23R-IgG (human, UniProt Q5VWK5 24-353, biotinylated)
T1 construct: not shown: human IgG1 Fc
T1 sequence: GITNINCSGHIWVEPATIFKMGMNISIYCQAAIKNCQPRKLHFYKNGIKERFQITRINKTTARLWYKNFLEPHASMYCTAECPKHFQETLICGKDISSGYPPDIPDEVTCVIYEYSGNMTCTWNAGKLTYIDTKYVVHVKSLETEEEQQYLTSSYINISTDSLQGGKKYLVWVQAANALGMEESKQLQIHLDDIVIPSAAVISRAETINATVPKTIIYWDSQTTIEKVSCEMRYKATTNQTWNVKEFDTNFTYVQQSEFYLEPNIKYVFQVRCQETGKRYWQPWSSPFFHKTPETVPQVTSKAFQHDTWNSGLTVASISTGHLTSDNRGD
Test: ECL binding assay, periplasmic Fab extracts, biotinylated huIL-23R-IgG; AUC vs parental 8B10 Fab
Please go through the items and note down their Binding (% of w.t.).

| binder | quantity | value_observed |
| --- | --- | --- |
| chimeric 8B10 Fab, VH H102A (Fab, V domains shown, Rat V domains with human CH1 and CL; E. coli periplasmic extract) VH: EVKLVESGGGLEQPKGSLKLSCTVSGFDFNSYGMSWVRQAPGKGLDLVADINSKSYNYATYYADSVKDRFTISRDDSQSMVYLEMDNLKTEDTALYYCTVHASDYFEYWGQGVMVTVSS VL: DIQMTQSPASLSASLGETVSIECLASEDIYNNLAWYQQKPGKSPQLLIYHASSLQDGVPSRFSGSGSGTQYSLKINSLESEDAATYFCLQDSEYPPTFGGGTKLELKR | Binding (% of w.t.) | 84.2 % of w.t. |

# evaluate next
Consider chimeric 8B10 Fab, VH D50A (Fab, V domains shown, Rat V domains with human CH1 and CL; E. coli periplasmic extract) VH: EVKLVESGGGLEQPKGSLKLSCTVSGFDFNSYGMSWVRQAPGKGLDLVAAINSKSYNYATYYADSVKDRFTISRDDSQSMVYLEMDNLKTEDTALYYCTVHHSDYFEYWGQGVMVTVSS VL: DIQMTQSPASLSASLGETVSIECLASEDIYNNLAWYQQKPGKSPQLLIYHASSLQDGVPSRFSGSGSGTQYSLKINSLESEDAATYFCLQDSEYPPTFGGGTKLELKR . Its measured Binding (% of w.t.) is 67.3 % of w.t.
